The following compounds are shown together with reported cytotoxicity at 70.5 h values.
# Assay notes: Human HepG2 cell viability assay in 384 well format
# Format: toxicity, cell-based
# Set-up: dose 125 nL, time 70.5 hour; concentration not given beside the values
# Test conditions: HepG2 cells, read-out: Inhibition
Numeric only. Scale: %

CCCn1nccc1-c1cc(C2CCN(S(C)(=O)=O)CC2)ccn1; -6.09
NC(=O)C(Nc1cccc(CO)c1)c1ccc(Br)cc1 (centres undefined); 6.7
O=C(NCc1ccccc1-n1cccn1)N1CCC(N2CCCC2)C1 (centres undefined); -6.47
Cc1nccc(CNC(=O)NC(c2ncc(C)s2)C2CC2)n1 (centres undefined); 17.4
Cc1ccsc1CN(C)C(=O)c1ccc(N2CCOCC2)c(F)c1; -7.5
CN(CCCc1cc(-c2ccc(F)cc2)n[nH]1)C(=O)CCn1cncn1; 1.64
CC(C)(C)NC[C@@H]1CCC[C@@H]2CN(Cc3csnn3)C[C@@H]21; -2.73
COCCc1noc(CN(C)C(=O)C2COc3ccccc3C2)n1 (centres undefined); -5.1

Answer with the recorded cytotoxicity at 70.5 h of Cc1csc(C(C)(C)NCC(=O)N2CCCC(C(N)=O)C2)n1 (centres undefined) only.
6.15

Answer with the recorded cytotoxicity at 70.5 h of Cn1cnnc1CCC(=O)N1CCCC(OCc2cccnc2)C1 (centres undefined) only.
-0.989

Answer with the recorded cytotoxicity at 70.5 h of CCN(CC1CCOC1)C(=O)c1ccccc1NS(=O)(=O)CC (centres undefined) only.
-3.45

Answer with the recorded cytotoxicity at 70.5 h of CC(C)CS(=O)(=O)CC(=O)N1CCCC1c1noc(C2CC2)n1 (centres undefined) only.
-8.35

Answer with the recorded cytotoxicity at 70.5 h of O=C(NCC(=O)N1CCCc2ccccc21)c1c(O)cc(F)cc1F only.
0.334

Answer with the recorded cytotoxicity at 70.5 h of Cc1nc(C)n(CC2CN(CCc3cccs3)CCO2)n1 (centres undefined) only.
-5.27

Answer with the recorded cytotoxicity at 70.5 h of COc1ccc(C(=O)N(C)Cc2c(C)noc2C)cn1 only.
-4.2

Answer with the recorded cytotoxicity at 70.5 h of CC(C)c1cc(O)nc(C2CCCN2C(=O)C2CC2)n1 (centres undefined) only.
-1.44

* * *

# Assay notes: Human HepG2 cell viability assay in 384 well format
# Assay type: toxicity, cell-based
# Design: dose 125 nL, time 70.5 hour; concentration not given beside the values
# Test conditions: HepG2 cells, read-out: Inhibition
The following compounds are shown together with reported cytotoxicity at 70.5 h values.
Numeric only. Scale: %

Cc1csc(CCNC(=O)NC(C)Cn2cccn2)n1 (centres undefined); 19
CC(=O)NCCNc1nc(-c2ccccn2)nc2c1c(C)nn2C; 1.86
CN(CC1CN(Cc2cn3ccsc3n2)CCO1)c1cccnn1 (centres undefined); -2.29
COC(=O)c1ccc(C2SC(C)=Nc3c2c(=O)[nH]n3C2CCCC2)cc1 (centres undefined); -14.5
CCc1nc(C2CCCN2Cc2nccn2CC(F)(F)F)no1 (centres undefined); 1.64
CCc1ccccc1C(=O)N1CCN(S(C)(=O)=O)[C@@H](C)C1; -9.19
CCc1noc(C(C)N2CCN(c3ccc(C#N)cc3F)CC2)n1 (centres undefined); -24.4
CCn1nc(C)c(CCNC(=O)C2CCCN(CC(N)=O)C2)c1C (centres undefined); 19.1

Answer with the recorded cytotoxicity at 70.5 h of O=S1(=O)c2ccccc2C2(CCN(Cc3cccnc3)C2)N1CC1CC1 (centres undefined) only.
-11.1

Answer with the recorded cytotoxicity at 70.5 h of O=S1(=O)COCCN1CCCOc1ccc(F)cc1 only.
22.1

Answer with the recorded cytotoxicity at 70.5 h of CC(C)CCN(C(=O)c1nc(S(C)(=O)=O)n2ccccc12)C1CC1 only.
-1.14

Answer with the recorded cytotoxicity at 70.5 h of COC(=O)c1ccc(Cl)c(NS(=O)(=O)c2cn(C)cn2)c1 only.
9.09

Answer with the recorded cytotoxicity at 70.5 h of CNC(=O)N1CCC2(CC1)C(=O)N(C)c1c(F)cccc12 only.
4.07

Answer with the recorded cytotoxicity at 70.5 h of Cc1cccc(C)c1Oc1ncccc1CNC(=O)C1(C)CCCNC1 (centres undefined) only.
-7.62

Answer with the recorded cytotoxicity at 70.5 h of COc1ccc(OC)c(-n2nnnc2SCC2CCCN(C)C2)c1 (centres undefined) only.
-3.08

Answer with the recorded cytotoxicity at 70.5 h of Cc1ccccc1C(CC(=O)N1CCc2sccc2C1)NC(N)=O (centres undefined) only.
-21.9

Answer with the recorded cytotoxicity at 70.5 h of CC(C)(CNC(=O)C1CCCN1S(C)(=O)=O)N1CCOCC1 (centres undefined) only.
-11

Answer with the recorded cytotoxicity at 70.5 h of CCC(CN1CCCCC1)NC(=O)C1(c2ccc(F)cc2)CC1 (centres undefined) only.
-7.64

Answer with the recorded cytotoxicity at 70.5 h of CC(C)c1cc(C(=O)N2CCCN(CCCc3ccccc3)CC2)[nH]n1 only.
-8.74

Answer with the recorded cytotoxicity at 70.5 h of Cc1nccn1C1CCCN(C(=O)c2cc3c(F)cccc3[nH]2)C1 (centres undefined) only.
-1.56

Answer with the recorded cytotoxicity at 70.5 h of CCCc1nc(N2CCCN3CCC[C@H]3C2)c2cnn(C)c2n1 only.
15.2

Answer with the recorded cytotoxicity at 70.5 h of COCC(=O)NS(=O)(=O)c1ccc(F)c(F)c1 only.
-2.65

Answer with the recorded cytotoxicity at 70.5 h of Cc1cc(C(=O)N2CCCC(c3cc(C(F)(F)F)[nH]n3)C2)on1 (centres undefined) only.
-4.58

Answer with the recorded cytotoxicity at 70.5 h of CC(C)CN1CCC(NC(=O)c2ccc(F)cc2I)CC1 only.
11.3

This collection of values is drawn from ChEMBL document CHEMBL3507680.
